Biological target: menin (Homo sapiens, UniProt O00255, T541A)
Construct: Menin (a.a. 1-610-6×his tag)
Sequence (O00255 with tags, fused parts or gaps T541A): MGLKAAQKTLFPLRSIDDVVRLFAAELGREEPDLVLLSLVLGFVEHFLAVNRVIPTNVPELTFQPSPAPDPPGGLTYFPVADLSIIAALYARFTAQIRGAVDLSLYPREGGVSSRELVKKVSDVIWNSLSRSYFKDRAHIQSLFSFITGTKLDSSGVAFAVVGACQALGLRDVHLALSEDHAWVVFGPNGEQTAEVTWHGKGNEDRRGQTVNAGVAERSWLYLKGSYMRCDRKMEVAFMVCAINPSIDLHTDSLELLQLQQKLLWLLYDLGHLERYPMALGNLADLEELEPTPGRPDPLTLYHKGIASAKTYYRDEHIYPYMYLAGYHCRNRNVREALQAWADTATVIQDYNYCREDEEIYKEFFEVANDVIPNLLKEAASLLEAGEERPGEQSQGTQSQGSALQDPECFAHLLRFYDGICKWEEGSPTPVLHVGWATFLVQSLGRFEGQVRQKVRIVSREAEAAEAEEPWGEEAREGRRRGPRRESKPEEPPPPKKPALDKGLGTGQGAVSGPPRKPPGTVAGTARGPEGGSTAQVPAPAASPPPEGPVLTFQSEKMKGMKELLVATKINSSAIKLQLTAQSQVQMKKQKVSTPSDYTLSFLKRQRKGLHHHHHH
Test: Menin/MLL homogenous time-resolved fluorescence (HTRF) assay
Assay type: binding
Conditions: location 2; read-out: (2) location 2 Menin HTRF assay (IC50 (nM))
Readout Kind: log10(IC50) (log10 of the value in nM)
Record value = log10 of IC50 given in nM.

Value of measured log10(IC50) for the entry FC(F)(F)Cc1cc2c(N3CCC4(CC(Nc5ccc(CN6CCOCC6)cc5)C4)C3)ncnc2s1 (mixture of isomers) [Compound 350] : 1.32

Noted for CS(=O)(=O)N1CCN(C(=O)c2ccc(NC3CC4(CCN(c5ncnc6sc(CC(F)(F)F)cc56)C4)C3)cc2)CC1 (single isomer, unassigned) [Compound 179] : its log10(IC50) reads 3.46

// log10(IC50) lookup, molecule = N#CCc1ccc(N[C@@H]2CC[C@@]3(CCN(c4ncnc5sc(CC(F)(F)F)cc45)C3)C2)cc1 (stereo in doubt) [Compound 144] , result: 0.97

response.value for CN(C1CC2(CCN(c3ncnc4sc(CC(F)(F)F)cc34)C2)C1)S(=O)(=O)c1ccccc1 (single isomer, unassigned) [Compound 25] (field: log10(IC50)) = 2.71

Consider COc1nc(N2CCC3(CC(Nc4ccccc4)C3)C2)c2cc(CC(F)(F)F)sc2n1 (single isomer, unassigned) [Compound 267] . Its measured log10(IC50) is 1.99

get_value(item= FC(F)(F)Cc1cc2c(N3CCC4(CC(Nc5cn[nH]c5)C4)C3)ncnc2s1 (mixture of isomers) [Compound 309] , readout=log10(IC50)) returns 2.53

molecule CS(=O)(=O)N1CCN(CCn2c(=O)oc3cc(NC4CC5(CCN(c6ncnc7sc(CC(F)(F)F)cc67)C5)C4)ccc32)CC1 (mixture of isomers) [Compound 249] , log10(IC50) observed: 2.43

----------
Biological target: menin (Homo sapiens, UniProt O00255, T541A)
Construct: Menin (a.a. 1-610-6×his tag)
Assay: Menin/MLL homogenous time-resolved fluorescence (HTRF) assay
Assay type: binding
Conditions: location 1; read-out: (2) location 1 Menin HTRF assay (IC50 (nM))
Readout Kind: log10(IC50) (log10 of the value in nM)
Scale: decimal log of IC50, IC50 in nM.

Entry FC(F)(F)Cc1cc2c(N3CC[C@]4(CC[C@@H](NCc5ccccc5)C4)C3)ncnc2s1 (single isomer, unassigned) , tested on menin (Homo sapiens, UniProt O00255, T541A), has a reported log10(IC50) of 2.48

Note to self: log10(IC50) of CS(=O)(=O)N[C@H]1CC[C@H](NC2CC3(CCN(c4ncnc5sc(CC(F)(F)F)cc45)C3)C2)CC1 (stereo partly shown) [Compound 102] with menin (Homo sapiens, UniProt O00255, T541A) was 2.53

Tested on menin (Homo sapiens, UniProt O00255, T541A): N#CCc1cccc(C(=O)NC2CCC3(C2)CN(c2ncnc4sc(CC(F)(F)F)cc24)C3)c1 (stereo not shown) . Observed log10(IC50): 3.58

Summary line: CS(=O)(=O)N[C@H]1CC[C@H](NC2CC3(CCN(c4ncnc5sc(CC(F)(F)F)cc45)C3)C2)CC1 (single isomer, unassigned) [Compound 103] , menin (Homo sapiens, UniProt O00255, T541A), reported log10(IC50) = 3.06

Bench note, menin (Homo sapiens, UniProt O00255, T541A): CC(C)(C#N)c1cccc(C(=O)NC2CC3(CCN(c4ncnc5sc(CC(F)(F)F)cc45)C3)C2)c1 (stereo not shown) , log10(IC50) reads 3.58

Let me check: FC(F)(F)Cc1cc2c(N3CC[C@@]4(CC[C@@H](NCc5ccccc5)C4)C3)ncnc2s1 (single isomer, unassigned) , system menin (Homo sapiens, UniProt O00255, T541A), measured log10(IC50) is 1.88

Item FC(F)(F)Cc1cc2c(N3CCC4(CC(NCc5ccccc5)C4)C3)ncnc2s1 (stereo not shown) was tested on menin (Homo sapiens, UniProt O00255, T541A); the reported log10(IC50) is 1.08

Form field, log10(IC50) with menin (Homo sapiens, UniProt O00255, T541A), item CC(C)CN(C(=O)CCN1CCOCC1)C1CC2(CCN(c3ncnc4sc(CC(F)(F)F)cc34)C2)C1 (mixture of isomers) : 2.74

Kindly note: menin (Homo sapiens, UniProt O00255, T541A), CN(C(=O)c1ccc(NC2CC3(CCN(c4ncnc5sc(CC(F)(F)F)cc45)C3)C2)cc1)S(C)(=O)=O (single isomer, unassigned) [Compound 364] , log10(IC50) value reported: -0.10

Lab note: compound FC(F)(F)Cc1cc2c(N3CCC4(CCC(NCc5ccccc5)CC4)C3)ncnc2s1 (single isomer, unassigned) [Compound 2] tested on menin (Homo sapiens, UniProt O00255, T541A); recorded log10(IC50) was 1.96

Measured on menin (Homo sapiens, UniProt O00255, T541A), FC(F)(F)Cc1cc2c(N3CC4(CC[C@@H](NCc5ccccc5)C4)C3)ncnc2s1 (single isomer, unassigned) has a documented log10(IC50) of 1.19

Record CC(C)NC1CC2(CCN(c3ncnc4sc(CC(F)(F)F)cc34)C2)C1 (stereo not shown) / menin (Homo sapiens, UniProt O00255, T541A), log10(IC50) recorded as 1.79

The observed log10(IC50) for N#CCc1ccc(C(=O)NC2CCC3(C2)CN(c2ncnc4sc(CC(F)(F)F)cc24)C3)cc1 (stereo not shown) when tested with menin (Homo sapiens, UniProt O00255, T541A) stands at 3.31

For the compound CN(C(=O)c1ccc(NC2CC3(CCN(c4ncnc5sc(CC(F)(F)F)cc45)C3)C2)cc1)S(C)(=O)=O (single isomer, unassigned) [Compound 363] , the measured log10(IC50) on menin (Homo sapiens, UniProt O00255, T541A) was 1.64

FC(F)(F)Cc1cc2c(N3CCC4(CCC(NCc5ccccc5)CC4)C3)ncnc2s1 (stereo not shown) [Compound 1] tested on menin (Homo sapiens, UniProt O00255, T541A) gave log10(IC50): 0.57

Field log10(IC50) (menin (Homo sapiens, UniProt O00255, T541A)), entry FC(F)(F)Cc1cc2c(N3CC4(CC(NCc5ccccc5)C4)C3)ncnc2s1 : 1.38

----------
Target: menin (Homo sapiens, UniProt O00255, T541A)
Construct: Menin (a.a. 1-610-6×his tag)
Test: Menin/MLL homogenous time-resolved fluorescence (HTRF) assay
Type: binding
Conditions: location 2; read-out: (2) location 2 Menin HTRF assay (IC50 (nM))
Description: 2) Menin/MLL Homogenous Time-Resolved Fluorescence (HTRF) Assay […] Compound potencies were determined by first calculating % inhibition at each compound concentration according to equation 1: % inhibition=((HC−LC)−(HTRF^compound−LC))/(HC−LC))*100 (Eqn 1) […]
Readout Kind: log10(IC50) (log10 of the value in nM)
Base-10 log of IC50, unit nM.

The reported menin (Homo sapiens, UniProt O00255, T541A) log10(IC50) of N#CCc1cccc(NC2CC3(CCN(c4ncnc5sc(CC(F)(F)F)cc45)C3)C2)c1 (mixture of isomers) [Compound 173] is 2.10

Measured on menin (Homo sapiens, UniProt O00255, T541A), CC(C)(C#N)c1cccc(C(=O)NC2CC3(CCN(c4ncnc5sc(CC(F)(F)F)cc45)C3)C2)c1 (stereo not drawn) has a documented log10(IC50) of 3.09

The molecule CS(=O)(=O)N1CCC(C#N)(c2ccc(NC3CC4(CCN(c5ncnc6sc(CC(F)(F)F)cc56)C4)C3)cc2)CC1 (mixture of isomers) , tested on menin (Homo sapiens, UniProt O00255, T541A), showed log10(IC50) of 0.85

The molecule O=C(c1ccc(NC2CC3(C2)CN(c2ncnc4sc(CC(F)(F)F)cc24)C3)cc1)N1CCOCC1 on menin (Homo sapiens, UniProt O00255, T541A): log10(IC50) was 2.13

Tested on menin (Homo sapiens, UniProt O00255, T541A): Cc1ccc(NC2CC3(CCN(c4ncnc5sc(CC(F)(F)F)cc45)C3)C2)cc1 (mixture of isomers) . Observed log10(IC50): 1.99

The value of log10(IC50) recorded for O=C1CN(C(=O)c2ccc(NC3CC4(CCN(c5ncnc6sc(CC(F)(F)F)cc56)C4)C3)cc2)CCN1 (single isomer, unassigned) [Compound 105] when tested on menin (Homo sapiens, UniProt O00255, T541A) reads 3.48

Param item: CCS(=O)(=O)N[C@H]1CC[C@H](CNC2CC3(CCN(c4ncnc5sc(CC(F)(F)F)cc45)C3)C2)CC1 (stereo partly drawn) ; param system: menin (Homo sapiens, UniProt O00255, T541A); output log10(IC50): 1.25

Note to self: log10(IC50) of Cn1nnc2ccc(NC3CC4(CCN(c5ncnc6sc(CC(F)(F)F)cc56)C4)C3)cc21 (mixture of isomers) with menin (Homo sapiens, UniProt O00255, T541A) was 1.58

Reading of log10(IC50) for O=C(c1ccc(NC2CC3(CCN(c4ncnc5sc(CC(F)(F)F)cc45)C3)C2)cc1)N1CCNCC1 (single isomer, unassigned) [Compound 187] with menin (Homo sapiens, UniProt O00255, T541A): 3.20

menin (Homo sapiens, UniProt O00255, T541A) log10(IC50) of FC(F)(F)Cc1cc2c(N3CCC4(CC(Nc5ccccc5)C4)C3)ncnc2s1 (single isomer, unassigned) [Compound 150] is 2.57
